# Test system: γ-globin mRNA
# assay details: γ-globin mRNA in cultured primary human erythroid progenitors (BFU-e), real-time PCR
# Assay type: cell-based
# run conditions: cultured primary human erythroid progenitors, concentrations pharmacologically achievable in humans
measurement label: γ-globin mRNA induction

Query :: Recorded γ-globin mRNA induction of Nc1c(Br)cc(Br)cc1CN[C@H]1CC[C@H](O)CC1 , please.
Result :: 3 fold
